Entry source: patent US6784184B2

# system-tested: FPTase (H-Ras substrate) (UniProt P29702+P49355)
# experiment: in vitro FTase Inhibition Assay, H-Ras as substrate for farnesylation
# assay-conditions: H-Ras used as substrate for farnesylation
For each record, write down the corresponding IC50.

Exercise: Reported IC50 for FPTase (H-Ras substrate) (UniProt P29702+P49355), given Cc1ccc(NC(=O)OC(C)(C)C)cc1C#CCCCC1(S(=O)(=O)c2ccc(I)cc2)SC(=O)NC1=O (stereo not drawn) ?
Solution: 4.5 to 120 nM

Exercise: Reported IC50 for FPTase (H-Ras substrate) (UniProt P29702+P49355), given COc1ccc(S(=O)(=O)C2(CCCC#Cc3ccc([N+](=O)[O-])cc3OC)SC(=O)NC2=O)cc1 (stereo not drawn) ?
Solution: 41 to 73 nM

Exercise: Reported IC50 for FPTase (H-Ras substrate) (UniProt P29702+P49355), given Cc1ccc(S(=O)(=O)C2(CCCC#Cc3ccc(S(C)(=O)=O)cc3)SC(=O)NC2=O)cc1 (stereo not drawn) ?
Solution: 650 nM

Exercise: Reported IC50 for FPTase (H-Ras substrate) (UniProt P29702+P49355), given COc1ccc(S(=O)(=O)C2(CCCC#Cc3cc(NC(=O)OC(C)(C)C)ccc3C)SC(=O)NC2=O)cc1 (stereo not drawn) [Example 150] ?
Solution: 7.4 to 32 nM

Exercise: Reported IC50 for FPTase (H-Ras substrate) (UniProt P29702+P49355), given O=C1NC(=O)C(CCCC#Cc2ccc(Cl)cc2)(S(=O)(=O)c2ccc(I)cc2)S1 (stereo not drawn) ?
Solution: 30 to 54 nM

Exercise: Reported IC50 for FPTase (H-Ras substrate) (UniProt P29702+P49355), given O=C1NC(=O)C(CCCC#Cc2ccc(Cl)cc2)(S(=O)(=O)c2ccc([N+](=O)[O-])cc2)S1 (stereo not drawn) ?
Solution: 400 nM

Exercise: Reported IC50 for FPTase (H-Ras substrate) (UniProt P29702+P49355), given Cc1ccc(S(=O)(=O)C2(CCCC#Cc3ccc(Cl)cc3)SC(=O)NC2=O)cc1 (stereo not drawn) ?
Solution: 30 to 50 nM

Exercise: Reported IC50 for FPTase (H-Ras substrate) (UniProt P29702+P49355), given COc1ccc(S(=O)(=O)C2(CCCC#Cc3cc(NC(=O)OCc4ccc([N+](=O)[O-])cc4)ccc3C)SC(=O)N(C(=O)OCc3ccc([N+](=O)[O-])cc3)C2=O)cc1 (stereo not drawn) ?
Solution: 7 to 10 nM

Exercise: Reported IC50 for FPTase (H-Ras substrate) (UniProt P29702+P49355), given COc1ccc(S(=O)(=O)C2(CCCC#Cc3cccs3)SC(=O)NC2=O)cc1 (stereo not drawn) ?
Solution: 150 nM

Exercise: Reported IC50 for FPTase (H-Ras substrate) (UniProt P29702+P49355), given COc1ccc(S(=O)(=O)C2(CCCC#Cc3cc(Cl)ccc3C)SC(=O)NC2=O)cc1 (stereo not drawn) ?
Solution: 23 to 32 nM

Exercise: Reported IC50 for FPTase (H-Ras substrate) (UniProt P29702+P49355), given O=C1NC(=O)C(CCCC#Cc2ccc(Cl)cc2)(S(=O)(=O)c2ccc3ccccc3c2)S1 (stereo not drawn) ?
Solution: 180 to 200 nM

Exercise: Reported IC50 for FPTase (H-Ras substrate) (UniProt P29702+P49355), given COc1ccc(S(=O)(=O)C2(CCCC#Cc3ccc([N+](=O)[O-])cc3C)SC(=O)NC2=O)cc1 (stereo not drawn) ?
Solution: 23 to 56 nM

Exercise: Reported IC50 for FPTase (H-Ras substrate) (UniProt P29702+P49355), given CCCCOc1ccc(S(=O)(=O)C2(CCCC#Cc3ccc(Cl)cc3)SC(=O)NC2=O)cc1 (stereo not drawn) ?
Solution: 590 to 600 nM

Exercise: Reported IC50 for FPTase (H-Ras substrate) (UniProt P29702+P49355), given COc1cccc(S(=O)(=O)C2(CCCC#Cc3cccs3)SC(=O)NC2=O)c1 (stereo not drawn) ?
Solution: 150 nM

Exercise: Reported IC50 for FPTase (H-Ras substrate) (UniProt P29702+P49355), given COc1ccc(S(=O)(=O)C2(CCCC#Cc3ccc(Cl)cc3C)SC(=O)NC2=O)cc1 (stereo not drawn) ?
Solution: 17 to 30 nM

Exercise: Reported IC50 for FPTase (H-Ras substrate) (UniProt P29702+P49355), given COc1ccc(S(=O)(=O)C2(CCCC#Cc3cc(NC(=O)OCc4ccccc4)ccc3C)SC(=O)NC2=O)cc1 (stereo not drawn) ?
Solution: 10 to 32 nM

Exercise: Reported IC50 for FPTase (H-Ras substrate) (UniProt P29702+P49355), given COc1ccc(S(=O)(=O)C2(CCCC#Cc3cc(Cl)ccc3Cl)SC(=O)NC2=O)cc1 (stereo not drawn) ?
Solution: 13 to 32 nM

Exercise: Reported IC50 for FPTase (H-Ras substrate) (UniProt P29702+P49355), given Cc1ccc(S(=O)(=O)C2(CCCC#Cc3ccc(C(C)(C)C)cc3)SC(=O)NC2=O)cc1 (stereo not drawn) ?
Solution: 270 nM

Exercise: Reported IC50 for FPTase (H-Ras substrate) (UniProt P29702+P49355), given COc1ccc(S(=O)(=O)C2(CCCC#Cc3cc(F)cc([N+](=O)[O-])c3)SC(=O)NC2=O)cc1 (stereo not drawn) ?
Solution: 40 to 200 nM

Exercise: Reported IC50 for FPTase (H-Ras substrate) (UniProt P29702+P49355), given COc1ccc(S(=O)(=O)C2(CCCC#Cc3ccc(C)cc3C)SC(=O)NC2=O)cc1 (stereo not drawn) ?
Solution: 43 to 50 nM

Exercise: Reported IC50 for FPTase (H-Ras substrate) (UniProt P29702+P49355), given Cc1ccc([N+](=O)[O-])cc1C#CCCCC1(S(=O)(=O)c2ccc(Oc3ccccc3)cc2)SC(=O)NC1=O (stereo not drawn) ?
Solution: 52 to 80 nM

Exercise: Reported IC50 for FPTase (H-Ras substrate) (UniProt P29702+P49355), given COc1ccc(S(=O)(=O)C2(CCCC#Cc3cc([N+](=O)[O-])ccc3OC)SC(=O)NC2=O)cc1 (stereo not drawn) ?
Solution: 80 to 82 nM

Exercise: Reported IC50 for FPTase (H-Ras substrate) (UniProt P29702+P49355), given O=C1NC(=O)C(CCCC#Cc2ccc([N+](=O)[O-])cc2)(S(=O)(=O)c2ccc(I)cc2)S1 (stereo not drawn) ?
Solution: 18 to 32 nM

Exercise: Reported IC50 for FPTase (H-Ras substrate) (UniProt P29702+P49355), given COc1ccc(S(=O)(=O)C2(CCCC#Cc3ccc([N+](=O)[O-])cc3)SC(=O)NC2=O)cc1 (stereo not drawn) ?
Solution: 120 nM

Exercise: Reported IC50 for FPTase (H-Ras substrate) (UniProt P29702+P49355), given O=C1NC(=O)C(CCCC#Cc2ccc(Cl)cc2)(S(=O)(=O)c2ccc(OCc3ccccc3)cc2)S1 (stereo not drawn) ?
Solution: 110 to 150 nM

Exercise: Reported IC50 for FPTase (H-Ras substrate) (UniProt P29702+P49355), given COc1ccc(S(=O)(=O)C2(CC#Cc3ccc(-c4ccccc4)cc3)SC(=O)NC2=O)cc1 (stereo not drawn) ?
Solution: 200 nM

Exercise: Reported IC50 for FPTase (H-Ras substrate) (UniProt P29702+P49355), given COc1ccc(S(=O)(=O)C2(CCCC#Cc3ccc(NC(=O)OC(C)(C)C)cc3C(F)(F)F)SC(=O)NC2=O)cc1 (stereo not drawn) ?
Solution: 530 to 700 nM

Exercise: Reported IC50 for FPTase (H-Ras substrate) (UniProt P29702+P49355), given COC(=O)c1ccc(C)c(C#CCCCC2(S(=O)(=O)c3ccc(OC)cc3)SC(=O)NC2=O)c1 (stereo not drawn) ?
Solution: 10 to 320 nM

Exercise: Reported IC50 for FPTase (H-Ras substrate) (UniProt P29702+P49355), given COc1ccc(S(=O)(=O)C2(CCCC#Cc3ccc(Cl)cc3)SC(=O)NC2=O)cc1 (stereo not drawn) ?
Solution: 75 to 150 nM

Exercise: Reported IC50 for FPTase (H-Ras substrate) (UniProt P29702+P49355), given CCCCOC(=O)Nc1ccc(C)c(C#CCCCC2(S(=O)(=O)c3ccc(OC)cc3)SC(=O)N(C(=O)OCCCC)C2=O)c1 (stereo not drawn) ?
Solution: 10 to 21 nM

* * *

# system-tested: FPTase (K-Ras substrate) (UniProt P29702+P49355)
# experiment: in vitro FTase Inhibition Assay, K-Ras as substrate for farnesylation
# assay-conditions: K-Ras used as substrate for farnesylation
property-label: IC50

Exercise: IC50 for CC(=O)Nc1ccc(S(=O)(=O)C2(CCCC#Cc3ccc(Cl)cc3)SC(=O)NC2=O)cc1 (stereo not shown) [Example 108] ?
Solution: ≥ 9000 nM

Exercise: IC50 for COc1ccc(S(=O)(=O)C2(CCCC#Cc3cc(NC(=O)OCC(C)(C)C)ccc3C)SC(=O)NC2=O)cc1 (stereo not shown) [Example 180] ?
Solution: 7 to 90 nM

Exercise: IC50 for COc1ccc(S(=O)(=O)C2(CCCC#Cc3cc([N+](=O)[O-])ccc3OC)SC(=O)NC2=O)cc1 (stereo not shown) [Example 123] ?
Solution: 1000 to 2800 nM

Exercise: IC50 for O=C1NC(=O)C(CCCC#Cc2ccc(-n3cccc3)cc2)(S(=O)(=O)c2ccc(I)cc2)S1 (stereo not shown) [Example 162] ?
Solution: 4000 nM
